B1: TPR t1 (parent)
chain: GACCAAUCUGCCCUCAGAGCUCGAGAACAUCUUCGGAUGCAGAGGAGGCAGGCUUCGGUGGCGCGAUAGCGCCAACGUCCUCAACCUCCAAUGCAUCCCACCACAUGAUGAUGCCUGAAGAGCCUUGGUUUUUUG

variants of: B1; assay: polymerase ribozyme fitness, log enrichment relative to wild type (log ratio); higher = more active; in vitro selection for triplet polymerase activity
Dear colleague, classification is by polymerase ribozyme fitness (log ratio), with ranges listed here: bottom bin = under -3, middle bin = from -3 up to -0.9, top bin = -0.9 and over

> print(dat)
      mutationannotation         cat
1        C53U C94A U129C  middle bin
2  U21G C56U A111G U112G     top bin
3    U9A A91C U92A C104U  middle bin
4          A6U C12U C80U     top bin
5              C28U G69U     top bin

The entry to classify is U7C G45U G60A C82G C85G G117A ; which class holds it? bottom bin

State the class of the variant shown: U38G A91C middle bin

For this variant, which bin applies? G44C C53U C56U C115U G117U G135A bottom bin

Into which category would you place C12G C40A A50C C80A A84C C104U ? bottom bin

Returns: class label. Input: G17A A75G C89A A90G bottom bin

Which category does the recorded polymerase ribozyme fitness (log ratio) put G52U G60C in? top bin

Note: place this variant into its band. Item: C8U C62A top bin

Band for the recorded polymerase ribozyme fitness (log ratio) of C40G G44C C72A U78G C94G A121C G128U ? bottom bin
